Value source: PubChem BioAssay AID1942

- system tested: Potassium voltage-gated channel subfamily KQT member 2 (Rattus norvegicus)
- assay info: KCNQ2 potentiation in CHO cells – cell-based, FluxOR thallium flux, counter-screen for hERG block protector project, confirmation (AID 1942);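 note: normalized value minus buffer-control mean plus three SD of buffer wells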
- settings: FluxOR thallium flux fluorescence, at 10 µM, hits give high values
Screen size: about 2,400 compounds; about 580 (24%) were called active. These entries were drawn from the full list.
Classification field: fulfilled = activity change, less the hit threshold at or over -10%; not fulfilled = activity change, less the hit threshold under -10%.

• CCOC(=O)c1cc2c(nc1NC(=S)NCc1ccccc1)CCCC2 = not fulfilled
• CCc1ccc(/C=C/C(=O)C2C(=O)c3ccccc3C2=O)cc1 = fulfilled
• CCOC(=O)C1=C(Cc2ccc(C)cc2)C(=O)c2ccccc2C1=O = fulfilled

Please check the record Cc1ccc(/C=N/N2C(=O)c3ccccc3NC2c2ccc(C)cc2)cc1 (stereo unspecified) and state if its activity change, less the hit threshold is at or above -10%.
not fulfilled

Please check the record C=C(C)CNC(=S)Nc1nc2c(cc1C(=O)OCC)CCCC2 and state if its activity change, less the hit threshold is at or above -10%.
fulfilled

Please check the record Nc1nc(O)c(N=Nc2ccc(S(N)(=O)=O)cc2)c(=O)[nH]1 and state if its activity change, less the hit threshold is at or above -10%.
not fulfilled

----------
- system tested: Potassium voltage-gated channel subfamily KQT member 2 (Rattus norvegicus)
- assay info: KCNQ2 potentiation in CHO cells – cell-based, FluxOR thallium flux, counter-screen for hERG block protector project, confirmation (AID 1942);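 note: normalized value minus buffer-control mean plus three SD of buffer wells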
- settings: FluxOR thallium flux fluorescence, at 10 µM, hits give high values
Hit rate of the full screen: of about 2,400 compounds, about 580 (24%) were called active. These entries were drawn from the full list.
// reported activity change, less the hit threshold per item
Give the number; % is assumed, so skip it.

* O=C(NNC(=S)NC(=O)c1sc2ccccc2c1Cl)c1ccc(Cl)cc1 | 11.1

Determine from records and report activity change, less the hit threshold for COc1ccccc1C(=O)NNC(=S)NC(=O)c1sc2ccccc2c1Cl
19.7

Determine from records and report activity change, less the hit threshold for O=C(NC(=S)Nc1nc2ccccc2s1)c1ccco1
40.4

Determine from records and report activity change, less the hit threshold for O=c1oc2cc(OCCO)ccc2c2c1CCCC2
-17.1

Determine from records and report activity change, less the hit threshold for O=c1[nH]c2ccccc2nc1C(F)(F)C(F)F
-16.2

Determine from records and report activity change, less the hit threshold for Cc1ccc(C(=O)NNC(=S)NC(=O)c2ccc(Cl)cc2)cc1
-28.7

----------
- system tested: Potassium voltage-gated channel subfamily KQT member 2 (Rattus norvegicus)
- assay info: KCNQ2 potentiation in CHO cells – cell-based, FluxOR thallium flux, counter-screen for hERG block protector project, confirmation (AID 1942);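 note: normalized value minus buffer-control mean plus three SD of buffer wells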
- settings: FluxOR thallium flux fluorescence, at 10 µM
Out of some 2,400 compounds screened, about 580 (24%) were called active.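 Rule for the calls: active = activity change at or above the mean plus 3 SD of buffer wells without dofetilide, per plate; inactive = the rest.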 These entries were drawn from the full list.
Pick one and only one: T = active, F = inactive

Observe how each entry below is paired with its result.
• Cc1ccc(-c2csc(=S)[nH]2)cc1 = T
• CCOC(=O)C1=C(O)/C(=C/c2ccc(OCC(=O)O)c(OC)c2)SC1=Nc1ccc(OCC)cc1 = F
• c1ccc(-c2n[nH]c(-c3ccccn3)n2)cc1 = T

Write down the call the test reported for this compound. Item: S=c1[nH]c(-c2ccc(Cl)cc2)cs1
T

Write down the call the test reported for this compound. Item: COc1ccc(-c2nc(-c3ccccn3)ncc2S(C)(=O)=O)cc1
F

Write down the call the test reported for this compound. Item: Cc1ccccc1NC(=O)CN1C(=O)S/C(=C\c2ccc(-c3cccc(C(=O)O)c3C)o2)C1=O
F

Write down the call the test reported for this compound. Item: Cn1c(CNC(=O)CNC(=O)c2ccc(F)cc2)cc(=O)n(C)c1=O
F

Write down the call the test reported for this compound. Item: COc1ccc2c(c1)O[C@@H](c1cccc(C(F)(F)F)c1)[C@H](OC(=O)NCCc1ccc(OC)c(OC)c1)C2=O
F
